protocol.notes: Solubility of the free base and its salts (description)
Format: physicochemical
measurement.context: water, pH 4, water, water at pH 4; read-out: solubility in water at pH 4
Structures can show the parent of a compound that is named as a salt.
reported.metric: solubility (mg/mL)
# value in mg/mL; strip the unit string

Identify measured solubility corresponding to CCNC(=O)c1noc(-c2cc(C(C)C)c(O)cc2O)c1-c1ccc(CN2CCOCC2)cc1 [mesylate salt] 33.5

----------
protocol.notes: Solubility of the mesylate salt in different aqueous media (Example 7)
Format: physicochemical
measurement.context: 5% mannitol solution, saline or isotonic, thermodynamic from solid
Counter-ions that a name gives are not always drawn.
reported.metric: solubility
Phrase the answer as number then unit, nothing more needed.

For the molecule CCNC(=O)c1noc(-c2cc(C(C)C)c(O)cc2O)c1-c1ccc(CN2CCOCC2)cc1 [mesylate salt] , give its reported solubility. 39 mg/mL
